Ki values by entry
Protein target, amino acids: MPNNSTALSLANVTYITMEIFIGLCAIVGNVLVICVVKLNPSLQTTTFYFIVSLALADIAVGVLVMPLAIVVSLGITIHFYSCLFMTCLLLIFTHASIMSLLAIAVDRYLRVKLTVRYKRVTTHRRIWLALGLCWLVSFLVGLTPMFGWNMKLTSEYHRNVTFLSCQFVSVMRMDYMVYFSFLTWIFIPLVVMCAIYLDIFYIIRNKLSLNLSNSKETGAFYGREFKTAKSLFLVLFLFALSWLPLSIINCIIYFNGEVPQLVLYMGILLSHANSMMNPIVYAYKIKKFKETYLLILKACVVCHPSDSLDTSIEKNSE
EXPERIMENTAL READOUT: Ki

smiles_text=COc1ccccc1Cc1nc(N)c2nn(-c3ccccc3)cc2n1 experimental_readout=Ki measured_result="572 nM"
smiles_text=Nc1nc(Cc2cccc(O)c2)nc2cn(-c3ccccc3)nc12 experimental_readout=Ki measured_result="435 nM"

Value source: ChEMBL document CHEMBL3352340
